# Tested on: M14 melanoma
# ASSAY TEXT: NCI-60 one-dose screen, 48 h (100 = growth as untreated, 0 = no growth, -100 = all killed)
# EXPERIMENTAL SETUP: 10 µM
This is part of a sample that, as a whole, favours compounds with a hit. Of some 83,000 tested, about 20% had one in any assay.

| MOLECULE | UNIT OF MEASURE | growth |
| --- | --- | --- |
| Cc1occc1-c1nnc(SCC(=O)c2ccc(NC(=O)CC(C)C)cc2)o1 | % | 112 |
| COc1cc(-c2nc(Nc3nc4ccccc4s3)[nH]c(=O)c2C#N)cc(OC)c1O | % | 96.3 |
| O=[N+]([O-])c1cccc(N=Cc2ccc3c(c2)OCO3)c1 | % | 97.7 |
| O=C1OCC2=C1C(c1cccc(Cl)c1)c1cc3c(cc1N2CCO)OCO3 (stereo unspecified) | % | 11 |
| C#Cc1ccc(-n2c(/C=C/c3cc(OC)cc(OC)c3)nc3ncccc3c2=O)cc1 | % | 81.2 |
| O=c1[nH]c2ccc(Cl)cc2c2ccccc12 | % | 94.7 |

###

# Tested on: DU-145 prostate
# ASSAY TEXT: NCI-60 one-dose screen, 48 h (100 = growth as untreated, 0 = no growth, -100 = all killed)
# EXPERIMENTAL SETUP: 10 µM
This is part of a sample that, as a whole, favours compounds with a hit. Of some 83,000 tested, about 20% had one in any assay.
Record Met whenever growth is at 90% or higher; record Not met when lower.

| COMPOUND | CATEGORY |
| --- | --- |
| N=C(N)c1ccc(-c2ccc(-c3cccs3)o2)cc1 | Not met |
| S=c1[nH]ccn1-c1c(Cl)cccc1Cl | Met |
| O=[N+]([O-])c1ccc(N/N=C/c2cccc3ccccc23)nc1 | Met |
| COc1cc(Cc2cc(-c3ccc(Cl)cc3)n[nH]c2=O)ccc1O | Met |
| COc1ccc(C2CC(c3ccc(N(C)C)cc3)=NN2c2ccc(S(N)(=O)=O)cc2)cc1 (stereo not drawn) | Not met |
| NC(=O)c1ccc(-c2cccc3c(=O)nc(N4CCOCC4)oc23)cc1 | Met |
| N#CCCN1C/C(=C/c2ccc(Cl)cc2)C(=O)/C(=C/c2ccc(Cl)cc2)C1 | Not met |
| O=C(Nc1cccc(-n2cc(-c3ccncc3)c(-c3cc(O)cc(Cl)c3)n2)c1)c1ccc(N2CCOCC2)c(C(F)(F)F)c1 | Not met |
| CCCC1(CC(=O)O)OCCc2c1[nH]c1ccccc21 (stereo not drawn) | Met |
| CCN(CC)CCC(CNc1c(C)cnc2cc(Cl)ccc12)c1ccc(Cl)c(Cl)c1 (stereo not drawn) | Not met |
| Clc1ccc(Nc2ccnc(NCCCNc3ccnc4cc(Cl)ccc34)n2)cc1 | Not met |
| O=[N+]([O-])c1cccc(N=Cc2ccc3c(c2)OCO3)c1 | Met |
| CCOCCOCCOCCOCCOCCOCCOCCOCCOCCO (tested in a mixture with another compound) | Not met |
| N=C(N)c1ccc(-c2ccc(-c3cccs3)s2)s1 | Not met |
| CCCCCCCCCCCCCCCCCCOCC(COCCOCC[N+]1(CCCCCC(=O)[O-])CCCC1)Oc1ncccn1 (stereo not drawn) | Not met |
| CCc1ccc2c(c1)N(CCO)C1=C(C(=O)OC1)C2c1cc(OC)c(OC)c(OC)c1 (stereo not drawn) | Not met |
| O=C(O)C(SC(C(=O)O)c1ccccc1)c1ccccc1 (stereo not drawn) | Met |
| CN(Cc1ccccc1)Cc1ccc([N+](=O)[O-])cc1I | Met |
| COc1cc(-c2cc(/C=C3\C(=O)Nc4cc(Cl)ccc43)[nH]n2)cc(OC)c1OC | Not met |
| COc1cc(-c2cc(/C=C/C(=O)c3ccc(Cl)c(Cl)c3)[nH]n2)cc(OC)c1OC | Not met |
| Cc1ccc(CC#N)cc1C | Not met |
| N#Cc1ncc(Br)c(NC2CCCCCC2)n1 | Met |
| O=C1NC(=O)c2ncccc21 | Met |
| Cc1ccc(NC(=O)Nc2c(Cl)cccc2Cl)cn1 | Met |
| COc1ccc2c(c1)sc1nc(-c3ccccc3)c(-c3ccsc3)n12 | Not met |
| O=C1C(c2ccccc2)C2C=CC(C2)N1O (stereo not drawn) | Met |
| COc1cc(-c2cc(C(=O)N3CCN(C(=O)c4ccccc4NCc4ccco4)CC3)nc3cc(-c4ccccc4)nn23)cc(OC)c1OC | Not met |
| O=[N+]([O-])c1ccc(Oc2cccnc2)c([N+](=O)[O-])c1 | Not met |
| O=C(Nc1nc2ccccc2s1)Nc1ccc([N+](=O)[O-])cc1Cl | Not met |
| CN(C)CCN1C(=O)c2cccc3cc(N)cc(c23)C1=O | Not met |
| CCOC(=O)CCC(NC(=O)c1ccc(N)cc1)C(=O)OCC (stereo not drawn) | Met |
| CN(C)C=Nc1cc(Cl)ccc1Cl | Met |
| COc1ccc2nc3ccccc3c(NCCNCC(C)O)c2c1 (stereo not drawn) | Not met |
| N#Cc1c(C#N)c(SSc2c(C#N)c(C#N)c(N)n2-c2ccccc2)n(-c2ccccc2)c1N | Met |
| COc1ccccc1CNCCCN1C(=O)c2ccc3c4c(ccc(c24)C1=O)C(=O)N(CCCN)C3=O | Not met |
| CCN(CC)CCOc1nc2cc(OC)c(OC)cc2c2c1-c1ccc(OC)cc1C2=O | Not met |
| O=C1/C(=C\c2ccc(Cl)cc2)CN(C(=O)c2ccccc2)C/C1=C\c1ccc(Cl)cc1 | Not met |
| Cc1cc2ccccc2nc1-c1ccccc1F | Met |

###

# System: RPMI-8226 leukemia
# ASSAY TEXT: NCI-60 one-dose screen, 48 h (100 = growth as untreated, 0 = no growth, -100 = all killed)
# EXPERIMENTAL SETUP: 10 µM
The panel holds about 83,000 compounds, 20% with a hit somewhere; the sample as a whole holds those more often.
ENDPOINT: growth (%)

| COMPOUND | ENDPOINT | OBSERVED MEASUREMENT |
| --- | --- | --- |
| CN(C)c1ccc(N=C2C=CC(=O)c3ccccc32)cc1 | growth | 65.4 |
| CC/C(=C(/c1ccc(OCCN(C)C)cc1)c1ccc(OC(=O)CCCCCCCCC(=O)c2c(C)[nH]c(/C=C3\N=C(c4ccc[nH]4)C=C3OC)c2C)cc1)c1ccccc1 | growth | 48.4 |
| Cc1[nH]nc2c1C(c1cnn(C)c1)C(C#N)=C(N)O2 (stereo not given) | growth | 99.3 |
| O=C(N/N=C/c1ccccc1)C(Oc1ccccc1)c1ccccc1 (stereo not given) | growth | 98.1 |
| Cc1ccc(C(=O)N2C/C(=C/c3ccc(F)cc3)C(=O)/C(=C/c3ccc(F)cc3)C2)cc1 | growth | -18 |
| COc1ccc(-c2nc3ncccn3c2-c2nnc(-c3ccsc3C)o2)cc1 | growth | 86.9 |
| C#Cc1ccc(-n2c(/C=C/c3cc(OC)cc(OC)c3)nc3ncccc3c2=O)cc1 | growth | 25.1 |
| CC(=O)OCc1cc(-c2nc3ccccc3[nH]c2=O)nn1-c1ccc(Cl)cc1 | growth | 89.1 |
| COc1ccc2c(c1)C(=O)c1c-2c(OCCN(C)C)nc2ccccc12 | growth | 17.4 |
| Cc1cc(Cc2cc(C)c(O)c(C)c2)cc(C)c1O | growth | 58.2 |

###

# Tested on: SF-268 CNS
# ASSAY TEXT: NCI-60 one-dose screen, 48 h (100 = growth as untreated, 0 = no growth, -100 = all killed)
# EXPERIMENTAL SETUP: 10 µM
The panel holds about 83,000 compounds, 20% with a hit somewhere; the sample as a whole holds those more often.
ENDPOINT: growth (%)

| COMPOUND | ENDPOINT | UNIT OF MEASURE | OBSERVED MEASUREMENT |
| --- | --- | --- | --- |
| COC(=O)C(=C\c1ccc2c(c1)OCO2)/C(=C/c1ccc2c(c1)OCO2)C(=O)OC | growth | % | 96 |
| O=C(Nc1cccc(-n2cc(-c3ccncc3)c(-c3ccc(O)c(Cl)c3)n2)c1)Nc1cccc(C(F)(F)F)c1 | growth | % | 9.04 |
| Nc1c(C(=O)Nc2ccccc2)sc2nc3c(cc12)C(O)CCC3 (stereo not given) | growth | % | 46.4 |
| ClCC#CCSc1ncnc2c1ncn2CC#CCCl | growth | % | -22.4 |
| Cc1cc(C)c(CCc2cc(C)c(C)cc2C)cc1C | growth | % | 103 |

###

Consider the following compounds and their measured growth readings.
# Tested on: SK-MEL-28 melanoma
# ASSAY TEXT: NCI-60 one-dose screen, 48 h (100 = growth as untreated, 0 = no growth, -100 = all killed)
# EXPERIMENTAL SETUP: 10 µM
This is part of a sample that, as a whole, favours compounds with a hit. Of some 83,000 tested, about 20% had one in any assay.

| COMPOUND | growth (%) |
| --- | --- |
| c1ccc(CNc2ncnc3scc(-c4cccs4)c23)nc1 | 96.7 |
| COc1ccc(-c2cc(-c3cccc(NS(C)(=O)=O)c3)nc(N)c2C#N)cc1 | 66 |
| COc1cccc(-c2cc(-c3cccc(NS(C)(=O)=O)c3)nc(N)c2C#N)c1O | 76.7 |
| COc1ccc(-c2cc(/C=C/C(=O)c3cc(OC)c(OC)c(OC)c3)[nH]n2)cc1OC | -66.8 |
| CSCCCNC(=O)c1ccc2c(c1)/C(=C/c1[nH]c(C)cc1C)C(=O)N2 | 17.6 |
| CCCCCCCCCCCCCC[n+]1ccc(C(N)=O)cc1 | 43.3 |
| COc1ccc(Nc2ccnc(NCCNc3ccnc4cc(Cl)ccc34)n2)cc1 | -29 |
| COc1cc2nc(Nc3cccc(C(=O)O)c3)nc(N)c2cc1OC | 103 |
| CC(=O)n1c(-c2ccc(Cl)c(Cl)c2)cn(-c2ccc(Cl)cc2)c1=O | 7.17 |
| COc1cc(Cl)cc(-c2nn(-c3cccc(NC(=O)Nc4ccc(Cl)c(C(F)(F)F)c4)c3)cc2-c2ccncc2)c1 | 23.6 |
| Cc1ccc(C(=O)Nc2cccc(F)c2)cc1NC(=O)C1(c2ncnc3[nH]ccc23)CC1 | 83.3 |
| COc1ccc(OC)c(/C=C/c2nc(SC)n(-c3ccc(Cl)cc3)n2)c1 | 85.1 |
| COc1cc(Cl)cc(-c2nn(-c3cccc(NC(=O)c4ccc(N5CCOCC5)c(C(F)(F)F)c4)c3)cc2-c2ccncc2)c1 | 53.2 |
| O=C(O)CN1C(=O)c2cccc3cccc(c23)C1=O | 109 |
| CN1CCC2(CC1)NC(=O)c1c(c3ccc(Cl)c(Cl)c3n1C)C2C#N (stereo not drawn) | 70.4 |
| COc1cc2nc(Nc3cccc(NC(C)=O)c3)nc(N)c2cc1OC | 90.3 |
| COc1ccc(-c2nn(-c3cccc(NC(=O)c4cc(C(F)(F)F)cc(C(F)(F)F)c4)c3)cc2-c2ccncc2)cc1Cl | 67.3 |
| COc1cc(CNCCCCCCN2C(=O)c3cccc4cccc(c34)C2=O)ccc1O | 18.7 |
| O=C1/C(=C\c2ccc(F)cc2)CN(C(=O)c2ccccc2F)C/C1=C\c1ccc(F)cc1 | -72.5 |
| CN(C)CC(O)c1ccc2cc(Br)c3ccccc3c2c1 (stereo not drawn) | 32.7 |
| O=C(NC(Cc1ccc(O)cc1)C(=O)N=Nc1c(O)[nH]c2ccccc12)c1ccccc1 (stereo not drawn) | 109 |
| CC1(C)N=C(N)N=C(N)N1c1ccc(CCc2ccccc2)c(Cl)c1 | 30.3 |
| N#CCCN1C/C(=C/c2ccccc2)C(=O)/C(=C/c2ccccc2)C1 | 54.2 |
| COc1ccc([N+](=O)[O-])c(C(=O)O)c1 | 106 |
| COc1cc(-c2nc(-c3nnc(-c4ccc(F)c(Cl)c4)o3)c3ccccn23)cc(OC)c1OC | 41.4 |
| Cc1occc1-c1nnc(SCC(=O)c2ccc(NC(=O)CC(C)C)cc2)o1 | 123 |
| COc1ccc(C2CC(c3ccc(N(C)C)cc3)=NN2c2ccc(S(N)(=O)=O)cc2)cc1 (stereo not drawn) | 86.3 |
| Oc1[nH]c2ccc(Cl)cc2c1/C=c1/ccc2c(c1)N=C(c1cccs1)N=2 | 71.1 |
| CCN(CC)CCNC(=O)c1ccc(NC(C)=O)cc1 | 118 |
| Cc1ccc(CC#N)cc1C | 137 |
| CC1(C)CCC(=NNC(N)=S)CC1 | 115 |
| COc1ccc(-c2nc(-c3nc4cc(Cl)c(Cl)cc4[nH]3)c3ccccn23)cc1 | 62.2 |
| Fc1ccc2nc(-c3nc(-c4ccccc4)n4ccccc34)[nH]c2c1 | -9.19 |
| COc1cc(Cc2cc(-c3ccc(Cl)cc3)n[nH]c2=O)ccc1O | 122 |
| CCN1CCCC1CNC(=O)c1ncc(-c2ccc(C(F)(F)F)cc2)c(NC2CCCCCC2)n1 (stereo not drawn) | 81.5 |
| CN1c2ccccc2[C@]2(Cc3ccccc3)Cc3ccccc3N[C@H]12 | 99.7 |
| O=[N+]([O-])c1cccc(N=Cc2ccc3c(c2)OCO3)c1 | 117 |
| COc1ccc(NC(=O)CSc2nc3ccccc3c(=O)n2CCc2ccccc2)cc1 | 91.6 |
| COc1ccc(-c2nn(-c3cccc(NC(=O)Nc4ccccc4)c3)cc2-c2ccncc2)cc1Cl | 11.3 |
| Nc1c(C(=O)Nc2cccc3ccccc23)sc2nc3c(cc12)C(=O)CCC3 | 42.8 |
| CCOC(=O)C(NC(=O)C(Cl)Cl)C(O)c1ccccc1 (stereo not drawn) | 144 |
| Nc1nccc(Nc2ccccc2)n1 | 116 |
| O=C(Nc1cccc(Cl)c1)Nc1nccs1 | 103 |

Origin of measurements: PubChem BioAssay (NCI)
